MEASUREMENT TARGET: T1, Mycobacterium marinum GroEL2, recombinant, biotinylated AVI-tagged form (Mycobacterium marinum, UniProt B2HQP9 1-541)
T1 construct: also called Mmr GroEL2; biotinylated GroEL protein
ASSAY PROTOCOL: BLI
ASSAY SETUP: both partners purified
pKd: −log10 of the molar value.
ASSAY METRIC: pKd

[
  {
    "BINDER": "GroEL2 sybody number 1 (VHH, not shown: Myc, C-terminal, kept; His6, C-terminal, kept) VHH: QVQLVESGGGLVQAGGSLRLSCAASGFPVAITYMHWYRQAPGKEREWVAAISSTGKTTWYADSVKGRFTISRDNAKNTVYLQMNSLKPEDTAVYYCLVEVGHYYKGQGTQVTVSA",
    "pKd": "~6.23"
  }
]

Now turn to the next binder.
Please fill in: pKd reported for GroEL2 sybody number 28 (VHH, not shown: Myc, C-terminal, kept; His6, C-terminal, kept) VHH: QVQLVESGGGLVQAGGSLRLSCAASGFPVDAYWMYWYRQAPGKEREWVAAIMSSGHGTWYADSVKGRFTISRDNAKNTVYLQMNSLKPEDTAVYSCNVKDKGAQAAWYDYWGQGTQVTVSA = ~7.46
